- STUDY TARGET: human MC4R (Homo sapiens)
- Construct: host or cells: HEK-293 cells stably expressing the GScAMP22F split-luciferase cAMP sensor and hMC4R, G418 selection
- Sequence (P32245 whole entry): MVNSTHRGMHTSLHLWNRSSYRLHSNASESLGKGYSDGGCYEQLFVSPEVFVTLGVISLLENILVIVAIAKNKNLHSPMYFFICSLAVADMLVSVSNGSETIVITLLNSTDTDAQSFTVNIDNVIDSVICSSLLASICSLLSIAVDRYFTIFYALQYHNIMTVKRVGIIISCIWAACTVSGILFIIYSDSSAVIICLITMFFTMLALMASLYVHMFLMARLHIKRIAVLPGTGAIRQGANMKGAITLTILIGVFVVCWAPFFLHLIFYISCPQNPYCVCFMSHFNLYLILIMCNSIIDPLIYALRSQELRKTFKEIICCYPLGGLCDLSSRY
- METHOD: split-luciferase cAMP sensor assay, agonist mode (measurement window 1), hMC4R
- Type: cell-based
- CONDITIONS USED: agonist mode, hMC4R stable cell line; read-out: MC4R cAMP % max activation
Positions of bridges follow the written chain, without caps; N, C: chain ends. Non-standard residues stand in square brackets, D forms with d. Residues, ends and D or L forms follow the SMILES beside them. dPhe(4-Br) = N[C@H](Cc1ccc(Br)cc1)C(=O)O; Nle = CCCC[C@H](N)C(=O)O

COMPOUND	STUDY TARGET	Emax
CCCC[C@H](NC(=O)[C@H](CCCNC(=N)N)NC(C)=O)C(=O)N[C@H]1CSSC[C@@H](C(N)=O)NC(=O)[C@@H](Cc2c[nH]c3ccccc23)NC(=O)[C@H](CCCNC(=N)N)NC(=O)[C@@H](Cc2ccc(Br)cc2)NC(=O)[C@H](Cc2c[nH]cn2)NC1=O [CTX-1231] (Ac-R[Nle]CH[dPhe(4-Br)]R[dW]C-NH2; disulfide 3-8 (inferred))	human MC4R (Homo sapiens)	64%
CC(=O)N[C@@H](CCCNC(=N)N)C(=O)N[C@H]1CSSC[C@@H](C(N)=O)NC(=O)[C@H](Cc2c[nH]c3ccccc23)NC(=O)[C@@H](CCCNC(=N)N)NC(=O)[C@@H](Cc2ccccc2)NC(=O)[C@H](CCCNC(=N)N)NC(=O)[C@@H](C)NC1=O [CTX-1282] (Ac-RC[dA]R[dF][dR]WC-NH2; disulfide 2-8 (inferred))	human MC4R (Homo sapiens)	72%
